- experimental-system: mouse TRPM3α2 (mTRPM3) ion channel (Mus musculus, UniProt J9SQF3)
- Sequence (J9SQF3 1-1709 isoform J9SQF3-12): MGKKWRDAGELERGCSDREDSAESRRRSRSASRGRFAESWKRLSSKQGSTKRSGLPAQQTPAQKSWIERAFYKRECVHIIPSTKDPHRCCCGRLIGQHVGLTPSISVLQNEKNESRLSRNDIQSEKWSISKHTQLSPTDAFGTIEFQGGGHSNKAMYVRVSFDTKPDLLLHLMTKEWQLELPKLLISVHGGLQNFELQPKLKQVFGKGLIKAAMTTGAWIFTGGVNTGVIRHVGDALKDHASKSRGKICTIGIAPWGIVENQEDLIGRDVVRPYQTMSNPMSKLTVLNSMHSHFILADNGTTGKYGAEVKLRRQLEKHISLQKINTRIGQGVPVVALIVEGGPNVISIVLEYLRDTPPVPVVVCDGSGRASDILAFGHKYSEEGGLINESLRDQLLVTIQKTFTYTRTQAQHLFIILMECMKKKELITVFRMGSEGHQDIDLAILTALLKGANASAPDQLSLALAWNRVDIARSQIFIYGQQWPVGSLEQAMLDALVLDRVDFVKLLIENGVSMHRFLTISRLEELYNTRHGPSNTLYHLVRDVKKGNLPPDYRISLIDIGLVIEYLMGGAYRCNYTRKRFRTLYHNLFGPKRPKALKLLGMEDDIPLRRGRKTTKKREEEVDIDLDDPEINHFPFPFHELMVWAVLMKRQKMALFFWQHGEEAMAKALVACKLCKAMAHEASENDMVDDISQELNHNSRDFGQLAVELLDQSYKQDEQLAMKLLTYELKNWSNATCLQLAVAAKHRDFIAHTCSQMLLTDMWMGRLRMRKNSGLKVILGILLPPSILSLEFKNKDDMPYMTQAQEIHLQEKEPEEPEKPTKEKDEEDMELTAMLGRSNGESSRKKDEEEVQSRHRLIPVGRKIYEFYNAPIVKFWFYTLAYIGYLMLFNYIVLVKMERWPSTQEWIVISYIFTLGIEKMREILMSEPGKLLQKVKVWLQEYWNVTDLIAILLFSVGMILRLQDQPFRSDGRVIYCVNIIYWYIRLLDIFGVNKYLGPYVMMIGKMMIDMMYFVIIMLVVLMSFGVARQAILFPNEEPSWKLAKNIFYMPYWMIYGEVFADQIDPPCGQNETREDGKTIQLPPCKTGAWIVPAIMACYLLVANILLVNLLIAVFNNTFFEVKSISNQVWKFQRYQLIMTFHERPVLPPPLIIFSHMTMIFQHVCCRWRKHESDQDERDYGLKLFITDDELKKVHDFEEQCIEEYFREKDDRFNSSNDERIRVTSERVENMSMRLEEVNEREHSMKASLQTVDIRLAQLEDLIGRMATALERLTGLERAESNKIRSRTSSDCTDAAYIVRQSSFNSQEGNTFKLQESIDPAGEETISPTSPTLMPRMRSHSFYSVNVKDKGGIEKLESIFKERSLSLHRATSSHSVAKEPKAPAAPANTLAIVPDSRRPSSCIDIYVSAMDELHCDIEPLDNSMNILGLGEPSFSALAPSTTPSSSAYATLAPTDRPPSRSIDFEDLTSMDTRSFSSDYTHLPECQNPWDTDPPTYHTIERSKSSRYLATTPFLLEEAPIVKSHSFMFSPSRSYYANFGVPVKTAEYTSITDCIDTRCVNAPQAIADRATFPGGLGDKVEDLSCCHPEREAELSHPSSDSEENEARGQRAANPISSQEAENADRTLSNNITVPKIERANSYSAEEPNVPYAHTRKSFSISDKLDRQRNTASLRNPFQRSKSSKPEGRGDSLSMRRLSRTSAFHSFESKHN
- test: TRPM3 ion channel driven Ca2+ uptake, Fluo-4 AM assay, mTRPM3alpha2 overexpressing flip-in HEK293 cells stimulated with pregnenolone sulfate (50 μM)
- test-conditions: mTRPM3 overexpressing HEK293 cells stimulated with pregnenolone sulfate (50 μM), activity ranges A, B, C
- Protocol: Monitoring the TRPM3 Ion Channel Driven Ca2+ Uptake. […] For mTRPM3, the intracellular Ca^2+ was measured with a Calcium responsive dye, Fluor-4 AM ester (Invitrogen). […] Channel inhibition was calculated compared to a non-PS stimulated control versus a condition stimulated with PS (50 μM) with vehicle. […]
Collected IC50 values appear next to each entry.

The cases that follow already have their IC50 on record.
> print(dat)
                                   compound  reported.result
1  Cn1nc2ccc(OCc3ccccn3)cc2c1C(=O)NC1(CO)CCNC1=O (single isomer, unassigned) [Cpd 253 - En2]       1 to 20 µM
2  Cc1ncsc1COc1ccc2nn(C)c(C(=O)NC3CNCC(F)(F)C3)c2c1 (single isomer, unassigned) [Cpd 213 - En2]          > 20 µM
3  Cn1nc2ccc(OCc3cccnc3)cc2c1C(=O)NC1(C(N)=O)CCOC1 (single isomer, unassigned) [Cpd 168 - En1]       1 to 20 µM
4  Cn1nc2ccc(OCc3ccccc3F)cc2c1C(=O)NC1(C(N)=O)CCOCC1 [Cpd 097]           < 1 µM
5  Cn1nc2ccc(OCc3ccccn3)cc2c1C(=O)NC(C)(CO)CC(F)(F)F (single isomer, unassigned) [Cpd 255 - En1]       1 to 20 µM
6  Cn1cc(COc2ccc3nn(C)c(C(=O)NC(C)(CO)C(N)=O)c3c2)cn1 (centres unmarked) [Cpd 156]       1 to 20 µM

# evaluate next
Query: For the compound shown here, Cn1nc2ccc(OCc3ccccc3F)cc2c1C(=O)NC(C)(CO)CC(F)F (single isomer, unassigned) [Cpd 203 - En1] , give the reported IC50.
Response: < 1 µM
